system: OVCAR-5 ovarian; experiment: NCI tumour cell line growth inhibition, 48 h
MEASURED QUANTITY: GI50

STRUCTURE AS SMILES	GI50
COc1ccc(CN2c3ccccc3CCc3ccccc32)cc1F	1.9 µM

Enter recorded GI50 with OVCAR-5 ovarian for COc1ccc(C(=O)N2c3ccccc3Sc3ccccc32)c(C(F)(F)F)c1 here.
1.61 µM

Enter recorded GI50 with OVCAR-5 ovarian for Oc1ccccc1-c1nc2c3ccccc3c3ccccc3c2[nH]1 here.
15 µM

Enter recorded GI50 with OVCAR-5 ovarian for C/C(=N\NC(N)=S)c1nc2ccc(Cl)cc2[nH]1 here.
5.71 µM

* * *

Catalogue of GI50 readings, one per entry.
test system: COLO 205 colon; test: NCI tumour cell line growth inhibition, 48 h

STRUCTURE AS SMILES	MEASURED QUANTITY	ASSAY RESULT
COc1cc(S(C)(=O)=O)ccc1Nc1nc2ccc(-c3ccc(NC(=O)[C@H](C)c4ccc(F)cc4)cc3)cn2n1	GI50	0.0838 µM
CC(C)[C@H]1C(=O)N[C@@H](CCCN=C(N)N)C(=O)NCC(=O)N[C@@H](CC(=O)O)C(=O)N[C@H](Cc2ccccc2)C(=O)N1C	GI50	> 100 µM

We next turn to a different molecule, shown below.
Let me know recorded GI50 for Cc1cc(-c2nnc3n2CCCCC3)c(C)n1-c1ccc(Cl)c(Cl)c1 , thanks.
10.6 µM

* * *

test system: SF-295 CNS; test: NCI tumour cell line growth inhibition, 48 h
MEASURED QUANTITY: TGI

Some entries whose results are on file:
MOLECULE	TGI
COc1ccc(C(=O)N2c3ccccc3Sc3ccccc32)c(C(F)(F)F)c1	> 100 µM
OCC1OC(n2cnc3c(/C=C(/O)c4ccccc4)ncnc32)C(O)C1O (stereo not given)	> 100 µM
O=C1c2cccc3cccc(c23)C(=O)N1CCCNOCCONCCCN1C(=O)c2cccc3cccc(c23)C1=O	> 100 µM
CC1(COS(=O)(=O)OCC2(C)COS(=O)(=O)OC2)COS(=O)(=O)OC1	> 100 µM

We next turn to a different molecule, shown below.
Let me know recorded TGI for Cc1ccc(NC(=O)Cn2c(Br)nc3c2c(=O)n(C)c(=O)n3C)cc1 , thanks.
21.8 µM

* * *

test system: SF-295 CNS; experiment: NCI tumour cell line growth inhibition, 48 h
MEASURED QUANTITY: TGI

MOLECULE	ASSAY RESULT
O=C1Nc2cccc3cc(NCC(O)CCl)cc1c23 (stereo unspecified)	> 100 µM
O=c1[nH]c(Nc2cccc(Cl)c2)nc2nc[nH]c12	> 100 µM
Cn1c2ccccc2c2c3c(c4c5ccccc5n(C)c4c21)C(=O)c1ccccc1C3=O	> 100 µM
CCOC(=O)COS(=O)(=O)C(F)(F)F	> 100 µM
COC(=O)CCCCCN=Cc1c(O)c(O)c(C(C)C)c2cc(C)c(-c3c(C)cc4c(C(C)C)c(O)c(O)c(C=NCCCCCC(=O)OC)c4c3O)c(O)c12	5.34 µM

We next turn to a different molecule, shown below.
Let me know recorded TGI for CC1(C)C2CCC3(C2)CS(=O)(=O)N2OC231 (stereo unspecified) , thanks.
> 100 µM

* * *

tested on: NCI-H23 lung; assay: NCI tumour cell line growth inhibition, 48 h
MEASURED QUANTITY: TGI

COMPOUND	TEST TARGET	ASSAY RESULT
Cc1cc(C)n(CN(Cn2nc(C)cc2C)C2CCCCC2)n1	NCI-H23 lung	56.8 µM
COc1ccc(CN2c3ccccc3CCc3ccccc32)cc1F	NCI-H23 lung	> 100 µM
CCN(CC)C1CC(n2cc(C)c(=O)[nH]c2=O)OC1CO (stereo not drawn)	NCI-H23 lung	> 100 µM
Cc1ccc2c(c1)C(c1cccc3ccccc13)OC2=O (stereo not drawn)	NCI-H23 lung	> 100 µM
Nc1ccc2[nH]c(C(=O)N3CC(CCl)c4c3cc(N)c3ccccc43)cc2c1 (stereo not drawn)	NCI-H23 lung	< 0.01 µM

Let me know recorded TGI for C[C-](O)O.O/C(=C\[C-](O)c1ccccc1)c1ccccc1.O/C(=C\[C-](O)c1ccccc1)c1ccccc1.[Nd+3] (stereo not drawn) , thanks.
29.4 µM

Let me know recorded TGI for [N-]=[N+]=Nc1ccc(CNc2cc(=O)[nH]c(=O)[nH]2)cc1 , thanks.
> 100 µM

Let me know recorded TGI for C=C(C)C1CC=C(C)C2(C1)OCC(C)(C)C(C)O2 (stereo not drawn) , thanks.
48.4 µM

Let me know recorded TGI for Cn1c(=O)c2c(ncn2CN2CCN(Cn3cnc4c3c(=O)n(C)c(=O)n4C)CC2)n(C)c1=O , thanks.
> 100 µM

Let me know recorded TGI for COc1ccc(Cl)cc1Nc1nc(C(F)(F)F)ccc1C(=O)N/N=C/c1cc(OC)c(OC)c(OC)c1 , thanks.
40.6 µM

Let me know recorded TGI for Clc1ccc(N=c2oc3ccccc3cc2-c2nc3ccccc3[nH]2)c(Cl)c1 , thanks.
> 100 µM

Let me know recorded TGI for Cc1cc(N/N=C/c2nc(-c3ccc(Cl)cc3)oc2C)c2cc(Cl)ccc2n1 , thanks.
19.1 µM

Let me know recorded TGI for Cc1sc2ccccc2[n+]1CCC(=O)O , thanks.
> 100 µM

* * *

test system: SNB-19 CNS; test: NCI tumour cell line growth inhibition, 48 h
Catalogue of TGI readings, one per entry.

Let me know recorded TGI for CC(C)N(C)C(=O)C12C3C4C1C1C2C3C41C#N (stereo not given) , thanks.
> 100 µM

Let me know recorded TGI for O=C1C(Br)=C(c2ccccc2)S(=O)c2ccccc21 (stereo not given) , thanks.
39.9 µM

* * *

test system: PC-3 prostate; test: NCI tumour cell line growth inhibition, 48 h
Where a SMILES comes first, the peptide text is derived from it. The star is where a group is joined. Boc = CC(C)(C)OC(=O)*; OBn = c1ccc(CO*)cc1
MEASURED QUANTITY: TGI

COMPOUND	TGI
c1ccc2c(Cc3nnc4sc(SSc5nn6c(Cc7c[nH]c8ccccc78)nnc6s5)nn34)c[nH]c2c1	> 100 µM
CC(C)CNC(=O)Cn1c(-c2ccccc2)cc2ccccc21	> 100 µM
C/C(O)=C/c1nc2ccc([N+](=O)[O-])cc2nc1/C=C(/C)O	> 100 µM
COc1cc(S(=O)(=O)Nc2ccc(-c3csc(N4C(=O)CSC4c4ccccc4)n3)cc2)ccc1Cl (centres undefined)	> 100 µM
CC1(C)Oc2ccc(NC(=O)CCC(N)C(=O)O)cc2O1 (centres undefined)	> 100 µM

Let me know recorded TGI for C[N+](C)(C)c1ncnc2c1ncn2C1CCCCO1 (centres undefined) , thanks.
> 100 µM

Let me know recorded TGI for C[C@]12CC[C@H](O)CC1=CC[C@@H]1[C@@H]2CC[C@]2(C)/C(=N/OCCN3CCCC3)CC[C@@H]12 , thanks.
39.4 µM

Let me know recorded TGI for O=C1/C(=C2\Sc3c(ccc(Cl)c3Cl)C2=O)Sc2c1ccc(Cl)c2Cl , thanks.
> 100 µM

Let me know recorded TGI for CC(C)(C)OC(=O)NC(Cc1ccccc1)C(=O)NC(Cc1ccccc1)C(=O)NCC(=O)OCc1ccccc1 (stereo not drawn) (Boc-Phe-Phe-Gly-OBn; configuration not given here) , thanks.
35.8 µM

Let me know recorded TGI for CCN(CCNc1ccc(C)c2sc3ccccc3c(=O)c12)CC(C)(C)O , thanks.
53.5 µM

Let me know recorded TGI for CN(C)CCCOCCn1c2c(c3ccccc31)CCCC2 , thanks.
32.6 µM

* * *

test system: A498 renal; experiment: NCI tumour cell line growth inhibition, 48 h
MEASURED QUANTITY: TGI

COMPOUND	TGI
Cc1ccc(S(=O)(=O)c2c(O)c3ccccc3n(C)c2=O)cc1	> 100 µM

Let me know recorded TGI for Cc1cc2c(=O)c3ccccc3[nH]c2c(C(=O)O)c1C , thanks.
> 100 µM

Let me know recorded TGI for BrC1(Br)C2/C=C\CCCCC21 (centres undefined) , thanks.
> 100 µM

Let me know recorded TGI for CC(=O)O[C@H]1C(=O)[C@@]2(C)[C@H]([C@H](OC(=O)c3ccccc3)[C@]3(O)C[C@H](OC(=O)[C@H](O)[C@@H](NC(=O)CC(C)(C)C)c4ccccc4)C(C)=C1C3(C)C)C1(OC(C)=O)CO[C@@H]1C[C@@H]2O (some centres undefined) , thanks.
> 10 µM

Let me know recorded TGI for COc1ccc(CN2c3ccccc3CCc3ccccc32)cc1F , thanks.
> 100 µM

Let me know recorded TGI for CC(C)(C)OC[C@H](O)CC#N , thanks.
> 100 µM

* * *

tested on: SK-MEL-5 melanoma; assay: NCI tumour cell line growth inhibition, 48 h
MEASURED QUANTITY: TGI

STRUCTURE AS SMILES	TEST TARGET	TGI
COC(=O)[C@@]12CCCC(=O)[C@@H]1[C@H]1CCCC[C@H]12	SK-MEL-5 melanoma	> 100 µM
CC(C)(C)OC[C@H](O)CC#N	SK-MEL-5 melanoma	> 100 µM

We next turn to a different compound, shown below.
Let me know recorded TGI for COc1ccc2nc3cc(Cl)ccc3c(NCCNCCCNC(=O)c3cc(-c4ccccc4)nc4ccccc34)c2c1 , thanks.
> 100 µM

Every entry's value here was drawn from PubChem BioAssay (NCI).
